Can you tell me log10 MRTlast for the items I'm about to list?
Test: Pharmacokinetics of PEGylated protease inhibitor prodrugs in rats
Assay type: in vivo, male Sprague-Dawley rats
Conditions: prodrug in plasma
Please keep in mind that the values are log10 of MRTlast expressed in h.

Given item CCOC(CC)OC(CN(Cc1ccc(-c2ccccn2)cc1)NC(=O)C(NC(=O)OC)C(C)(C)C)C(Cc1ccccc1)NC(=O)C(NC(=O)OCCOCCOCCOC)C(C)(C)C (mixture of isomers) [1-ethoxypropoxy-mPEG3-Atazanivir, atazanavir-1-ethoxypropoxy-mPEG3] , the value recorded as its log10 MRTlast is 0.36

Given item COCCOCCOCCOC(=O)NC(C(=O)NC(Cc1ccccc1)C(CN(Cc1ccc(-c2ccccn2)cc1)NC(=O)C(NC(=O)OC)C(C)(C)C)OC(=O)CCCC(=O)O)C(C)(C)C (stereo not shown) [mPEG3-Atazanavir-glutaric acid] , the value recorded as its log10 MRTlast is 0.92

Given item COCCOCCOCCOC(=O)NC(C(=O)NC(Cc1ccccc1)C(CN(Cc1ccc(-c2ccccn2)cc1)NC(=O)C(NC(=O)OC)C(C)(C)C)OC(=O)COCCOC(=O)C(N)CC(C)C)C(C)(C)C.Cl (stereo not shown) [mPEG3-Atazanavir-CME-Leucine HCl, mPEG3-Atazanavir-CME-Leucine] , the value recorded as its log10 MRTlast is 0.57

Given item CCOC(C)OC(CN(Cc1ccc(-c2ccccn2)cc1)NC(=O)C(NC(=O)OC)C(C)(C)C)C(Cc1ccccc1)NC(=O)C(NC(=O)OCCOCCOCCOCCOCCOCCOC)C(C)(C)C (mixture of isomers) [1-ethoxyethoxy-mPEG6-Atazanivir, ethoxy ethoxy mPEG6-atazanavir] , the value recorded as its log10 MRTlast is 0.34

Given item COCCOCCOCCOC(=O)NC(C(=O)NC(Cc1ccccc1)C(CN(Cc1ccc(-c2ccccn2)cc1)NC(=O)C(NC(=O)OC)C(C)(C)C)OC(=O)COCCOC(=O)C(Cc1ccccc1)NC(=O)C(N)Cc1ccccc1)C(C)(C)C.Cl (stereo not shown) [mPEG3-atazanavir-CME-phe-phenylalanine, mPEG3-Atazanavir-CME-PhePhenylalanine] , the value recorded as its log10 MRTlast is -0.16

Given item COCCOCCOCCOCCOCCOCCOC(=O)NC(C(=O)NC(Cc1ccccc1)C(CN(Cc1ccc(-c2ccccn2)cc1)NC(=O)C(NC(=O)OC)C(C)(C)C)OC(=O)COCCOC(=O)C(N)CC(C)C)C(C)(C)C.Cl (stereo not shown) [mPEG6-Atazanavir-CME-Leucine HCl, mPEG6-Atazanavir-CME-Leucine] , the value recorded as its log10 MRTlast is 0.35

Given item CCOCO[C@@H](CN(Cc1ccc(-c2ccccn2)cc1)NC(=O)[C@@H](NC(=O)OC)C(C)(C)C)[C@H](Cc1ccccc1)NC(=O)[C@@H](NC(=O)OCCOCCOCCOC)C(C)(C)C [mPEG3-Atazanavir-methyl ethyl ether, mPEG3-Atazanavir Methyl Ethyl Ether] , the value recorded as its log10 MRTlast is 0.39

###

Assay: Pharmacokinetics of released PEGylated protease inhibitor following P.O. administration of prodrugs in rats
Format: in vivo, male Sprague-Dawley rats
Details: mPEG5-atazanavir in plasma after PO administration of mPEG5-ATV or of the listed prodrug, rats (n = 4-5)
Can you tell me MRT last Mean for the items I'm about to list?
Report the value in h with no unit label.

Given item COCCOCCOCCOCCOCCOC(=O)N[C@H](C(=O)N[C@@H](Cc1ccccc1)[C@H](CN(Cc1ccc(-c2ccccn2)cc1)NC(=O)[C@@H](NC(=O)OC)C(C)(C)C)OC(=O)[C@H](CC(C)C)NC(=O)[C@@H](N)CC(C)C)C(C)(C)C.Cl [Leu-Leu-mPEG5-Atazanavir HCl, Leu-Leu-mPEG5-Atazanavir Hydrochloride] , the value recorded as its MRT last Mean is 10.7

Given item CCOC(C)OC(CN(Cc1ccc(-c2ccccn2)cc1)NC(=O)C(NC(=O)OC)C(C)(C)C)C(Cc1ccccc1)NC(=O)C(NC(=O)OCCOCCOCCOCCOCCOC)C(C)(C)C (mixture of isomers) , the value recorded as its MRT last Mean is 1.95

Given item CCCCC(=O)O[C@@H](CN(Cc1ccc(-c2ccccn2)cc1)NC(=O)[C@@H](NC(=O)OC)C(C)(C)C)[C@H](Cc1ccccc1)NC(=O)[C@@H](NC(=O)OCCOCCOCCOCCOCCOC)C(C)(C)C , the value recorded as its MRT last Mean is 2.43

Given item CCOCO[C@@H](CN(Cc1ccc(-c2ccccn2)cc1)NC(=O)[C@@H](NC(=O)OC)C(C)(C)C)[C@H](Cc1ccccc1)NC(=O)[C@@H](NC(=O)OCCOCCOCCOCCOCCOC)C(C)(C)C , the value recorded as its MRT last Mean is 6.19

Given item COCCOCCOCCOCCOCCOC(=O)NC(C(=O)NC(Cc1ccccc1)C(CN(Cc1ccc(-c2ccccn2)cc1)NC(=O)C(NC(=O)OC)C(C)(C)C)OC(=O)C(N)C(C)C)C(C)(C)C.Cl [mPEG5-ATV-L-valine, mPEG5-Atazanavir-L-valine HCl] , the value recorded as its MRT last Mean is 6.89

Given item CCOC(CC)OC(CN(Cc1ccc(-c2ccccn2)cc1)NC(=O)C(NC(=O)OC)C(C)(C)C)C(Cc1ccccc1)NC(=O)C(NC(=O)OCCOCCOCCOCCOCCOC)C(C)(C)C (mixture of isomers) , the value recorded as its MRT last Mean is 3.53

Given item COCCOCCOCCOCCOCCOC(=O)NC(C(=O)NC(Cc1ccccc1)C(CN(Cc1ccc(-c2ccccn2)cc1)NC(=O)C(NC(=O)OC)C(C)(C)C)OC(=O)CNC(=O)C(N)CC(C)C)C(C)(C)C.Cl (stereo not drawn) [Leu-Gly-mPEG5-Atazanavir HCl, Leu-Gly-mPEG5-Atazanavir Hydrochloride] , the value recorded as its MRT last Mean is 11.3

Given item COCCOCCOCCOCCOCCOC(=O)NC(C(=O)NC(Cc1ccccc1)C(CN(Cc1ccc(-c2ccccn2)cc1)NC(=O)C(NC(=O)OC)C(C)(C)C)OCOCCOC)C(C)(C)C (centres unmarked) , the value recorded as its MRT last Mean is 4.92
